METHOD: activity coefficient (dimensionless); of the first substance listed, at infinite dilution; xn = mol fraction of the nth substance listed
PROTOCOL_CONDITIONS: 333.15 K; Liquid; Chromatography; x1 = 0
EXPERIMENTAL_ENDPOINT: activity coefficient
Format: numeric value only, no unit, no commentary.

Recorded activity coefficient, per entry:
CCCC(C)=O [pentan-2-one] + CCCOC[n+]1ccn(Cc2ccccc2)c1.N#C[N-]C#N :: 1.51
CCCCCCCCCCCC [dodecane] + CCCCCCCCn1cc[n+](COCCCOC[n+]2ccn(CCCCCCCC)c2C)c1C.O=S(=O)([N-]S(=O)(=O)C(F)(F)F)C(F)(F)F.O=S(=O)([N-]S(=O)(=O)C(F)(F)F)C(F)(F)F :: 13.9
C[N+](=O)[O-] [nitromethane] + CCCOC[n+]1ccc(N(C)C)cc1.O=S(=O)([N-]S(=O)(=O)C(F)(F)F)C(F)(F)F :: 0.55
CCCCO [butan-1-ol] + Cn1cc[n+](COCCCOC[n+]2ccn(C)c2)c1.O=S(=O)([N-]S(=O)(=O)C(F)(F)F)C(F)(F)F.O=S(=O)([N-]S(=O)(=O)C(F)(F)F)C(F)(F)F :: 1.85
CCOCC [diethyl ether] + CN(C)c1cc[n+](COCCCOC[n+]2ccc(N(C)C)cc2)cc1.O=S(=O)([N-]S(=O)(=O)C(F)(F)F)C(F)(F)F.O=S(=O)([N-]S(=O)(=O)C(F)(F)F)C(F)(F)F :: 2.47

We now examine a further molecule.
// recorded activity coefficient for CCc1ccccc1 [ethylbenzene] + CCCOC[n+]1ccn(Cc2ccccc2)c1.N#C[N-]C#N : 3.36
